Catalogue of compounds with associated solubility
assay: Solubility in 0.1 M phosphate buffer at pH 7.4
Numeric answer only, unit µM assumed.

compound=Cc1cc(C)cc(-c2[nH]c3sc(C(C)(C)C(=O)N4C5CCC4CC5)cc3c2C(=O)CN2CCN(CC(=O)N3CCCC3)CC2)c1 measurement_kind=solubility measured=947
compound=Cc1cc(C)cc(-c2[nH]c3sc(C(C)(C)C(=O)N4C5CCC4CC5)cc3c2[C@H](C)CNC(=O)N2CCC(c3ccncc3)CC2)c1 measurement_kind=solubility measured=0.6
compound=Cc1cc(C)cc(-c2[nH]c3sc(C(C)(C)C(=O)N4C5CCC4CC5)cc3c2CCN2CCN(CC(=O)N(C)C)CC2)c1 measurement_kind=solubility measured=104

We now examine a further compound.
// returns reported solubility for input COC(=O)/N=C(/NC[C@@H](C)c1c(-c2cc(C)cc(C)c2)[nH]c2sc(C(C)(C)C(=O)N3C4CCC3CC4)cc12)N1CCC(c2ccncc2)C1 (some centres undefined)
4.6

This collection of values is drawn from ChEMBL document CHEMBL1140569.
